Origin of values: ChEMBL document CHEMBL4402598

target: D(2) dopamine receptor (Homo sapiens, UniProt P14416); assay: Displacement of [3H]-N-methylspiperone from recombinant human D2 receptor stably expressed in fibroblast cell membranes measured after 90 mins by microbeta scintillation counting method
Sequence (P14416 whole entry): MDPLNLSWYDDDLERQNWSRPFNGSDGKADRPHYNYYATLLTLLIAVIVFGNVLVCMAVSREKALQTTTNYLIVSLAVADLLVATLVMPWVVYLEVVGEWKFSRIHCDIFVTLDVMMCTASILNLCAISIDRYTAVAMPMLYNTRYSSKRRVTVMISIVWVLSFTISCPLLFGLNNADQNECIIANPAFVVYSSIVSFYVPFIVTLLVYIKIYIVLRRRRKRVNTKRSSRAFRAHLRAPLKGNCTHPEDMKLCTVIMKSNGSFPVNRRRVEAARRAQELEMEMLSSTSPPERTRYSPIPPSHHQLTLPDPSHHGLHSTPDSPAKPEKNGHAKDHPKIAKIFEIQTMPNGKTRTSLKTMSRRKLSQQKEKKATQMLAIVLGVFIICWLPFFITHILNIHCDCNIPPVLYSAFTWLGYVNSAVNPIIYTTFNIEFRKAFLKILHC
RECORDED METRIC: Ki (µM)
Numbers only, in µM.

Check out these entries, answers already filled in.
>>> number("CCCN(CCCCNC(=O)c1cc2ccccc2[nH]1)CC1CC1c1ccc(Cl)cc1 (stereo not drawn)")
3.16
>>> number("CCCN(CCCCNC(=O)c1ccc2ccccc2c1)C[C@@H]1C[C@H]1c1cccc(Cl)c1Cl.Cl")
0.676
>>> number("CCN(CCCSc1nnc(-c2ccccc2)n1C)CC1CC1c1cc(Cl)ccc1OC (stereo not drawn)")
0.238
>>> number("CCCN(CCCCNC(=O)c1ccc2ccccc2c1)CC1CC1c1cccc(Cl)c1Cl (racemic)")
2.1
>>> number("COc1ccc(F)cc1C1CC1CNCCCSc1nnc(-c2ccccc2)n1C (stereo not drawn)")
0.253

For every record below, what is its Ki?
1. CCCN(CCCCNC(=O)c1ccc2ccccc2c1)C[C@H]1C[C@@H]1c1cccc(Cl)c1Cl.Cl
2. CCCN(CCCSc1nnc(-c2ccccc2)n1C)CC1CC1c1cc(Cl)ccc1OC (stereo not drawn)

1.15
0.233

# batch size: 3; output Ki per entry
1. CCCN(CCCCNC(=O)c1ccc2ccccc2c1)CC1CC1c1cccc(Cl)c1 (stereo not drawn)
2. CCCN(CCCCNC(=O)c1ccc(-c2ccccn2)cc1)CC1CC1c1cc(F)ccc1OC (racemic)
3. CCCN(CCCCNC(=O)c1cc2ccccc2[nH]1)CC1CC1c1cccc(F)c1 (stereo not drawn)

4.01
3.14
3.49

Give Ki for each of the items listed below.
1. CCOc1ccc(F)cc1C1CC1CNCCCSc1nnc(-c2ccccc2)n1C (stereo not drawn)
2. Cn1c(SCCCNCC2CC2c2cc(F)ccc2OCCF)nnc1-c1ccccc1 (stereo not drawn)
3. CCCN(CCCCNC(=O)c1ccc(-c2ccccn2)cc1)CC1CC1c1cc(Cl)ccc1OC (stereo not drawn)
4. CCN(CCCCNC(=O)c1ccc2ccccc2c1)CC1CC1c1cc(F)ccc1OC (stereo not drawn)
5. CCCN(CCCCNC(=O)c1ccc2ccccc2c1)CC1CC1c1ccc(F)cc1 (stereo not drawn)
6. CCCN(CCCCNC(=O)c1ccc2ccccc2c1)CC1CC1c1cccc(F)c1 (stereo not drawn)

1. 0.661
2. 1.5
3. 2.1
4. 0.407
5. 5.62
6. 4.82

Parameter requested: Ki. Apply to each item below.
1. COc1ccc(F)cc1C1CC1CN(CCCSc1nnc(-c2ccccc2)n1C)C(C)C (stereo not drawn)
2. CN(CCCSc1nnc(-c2ccccc2)n1C)CC1CC1c1cc(F)ccc1OCCF (stereo not drawn)
3. CCOc1ccc(F)cc1C1CC1CN(CC)CCCSc1nnc(-c2ccccc2)n1C (stereo not drawn)
4. CCCN(CCCCNC(=O)c1cc2ccccc2[nH]1)CC1CC1c1cccc(Cl)c1 (stereo not drawn)
5. CCCN(CCCCNC(=O)c1ccc2ccccc2c1)CC1CC1c1ccc(Cl)cc1 (stereo not drawn)

[0.513, 2.44, 0.38, 3.49, 4.61]

// each compound listed below needs its Ki
1. CCCN(CCCSc1nnc(-c2ccccc2)n1C)CC1CC1c1cc(F)ccc1OC (stereo not drawn)
2. CCCN(CCCCNC(=O)c1cc2ccccc2[nH]1)C[C@@H]1C[C@H]1c1cccc(Cl)c1Cl.Cl

1.16
0.537

For each of the compounds below, state Ki.
1. CCCN(CCCCNC(=O)c1cc2ccccc2[nH]1)C[C@H]1C[C@@H]1c1cccc(Cl)c1Cl.Cl
2. CCCN(CCCCNC(=O)c1cc2ccccc2[nH]1)CC1CC1c1cc(F)ccc1OC (stereo not drawn)
3. CCN(CCCCNC(=O)c1cc2ccccc2[nH]1)CC1CC1c1cc(F)ccc1OC (stereo not drawn)

[0.992, 0.507, 0.38]

Need Ki for each of these compounds.
1. CCCN(CCCCNC(=O)c1ccc2ccccc2c1)CC1CC1c1cc(Cl)ccc1OC (stereo not drawn)
2. CCCN(CCCCNC(=O)c1ccc2ccccc2c1)CC1CC1c1cc(F)ccc1OC (stereo not drawn)
3. COc1ccc(F)cc1C1CC1CN(C)CCCSc1nnc(-c2ccccc2)n1C (stereo not drawn)
4. CCCN(CCCCNC(=O)c1cc2ccccc2[nH]1)CC1CC1c1ccc(F)cc1 (stereo not drawn)

[1.12, 1.08, 0.324, 5.93]
